Each recorded value in this set is attributed to ChEMBL document CHEMBL4706518.

Target: Metabotropic glutamate receptor 3 (Homo sapiens)
Assay: Agonist activity at human mGlu3 receptor expressed in CHO cell membranes by GTPgammaS binding assay
Format: functional, Cell membrane
property: EC50 (nM)
Lab book: enter the figure in nM, no units written.

Task item: Determine from records and report EC50 for `N[C@]1(C(=O)O)[C@H]2[C@@H](C[C@@H]1F)[C@@H]2C(=O)O`
Reply: 75.9

---

Target: Metabotropic glutamate receptor 4 (Homo sapiens)
Test: Agonist activity at human mGlu4 receptor expressed in CHO cell membranes by GTPgammaS binding assay
property: EC50

Task item: // fetch EC50 given entry `N[C@]1(C(=O)O)[C@H]2[C@@H](C[C@@H]1F)[C@@H]2C(=O)O`
Reply: > 30 µM

---

Target: Metabotropic glutamate receptor 6 (Homo sapiens)
Assay: Antagonist activity at human mGlu6 receptor expressed in HEK293T cell membranes in presence of glutamate by GTPgammaS binding assay
property: IC50

Task item: Retrieve IC50 measured for `N[C@]1(C(=O)O)[C@H]2[C@@H](C[C@@H]1F)[C@@H]2C(=O)O` and print it.
Reply: > 30 µM

---

Molecular target: Metabotropic glutamate receptor 6 (Homo sapiens, UniProt O15303)
Sequence (O15303 whole entry): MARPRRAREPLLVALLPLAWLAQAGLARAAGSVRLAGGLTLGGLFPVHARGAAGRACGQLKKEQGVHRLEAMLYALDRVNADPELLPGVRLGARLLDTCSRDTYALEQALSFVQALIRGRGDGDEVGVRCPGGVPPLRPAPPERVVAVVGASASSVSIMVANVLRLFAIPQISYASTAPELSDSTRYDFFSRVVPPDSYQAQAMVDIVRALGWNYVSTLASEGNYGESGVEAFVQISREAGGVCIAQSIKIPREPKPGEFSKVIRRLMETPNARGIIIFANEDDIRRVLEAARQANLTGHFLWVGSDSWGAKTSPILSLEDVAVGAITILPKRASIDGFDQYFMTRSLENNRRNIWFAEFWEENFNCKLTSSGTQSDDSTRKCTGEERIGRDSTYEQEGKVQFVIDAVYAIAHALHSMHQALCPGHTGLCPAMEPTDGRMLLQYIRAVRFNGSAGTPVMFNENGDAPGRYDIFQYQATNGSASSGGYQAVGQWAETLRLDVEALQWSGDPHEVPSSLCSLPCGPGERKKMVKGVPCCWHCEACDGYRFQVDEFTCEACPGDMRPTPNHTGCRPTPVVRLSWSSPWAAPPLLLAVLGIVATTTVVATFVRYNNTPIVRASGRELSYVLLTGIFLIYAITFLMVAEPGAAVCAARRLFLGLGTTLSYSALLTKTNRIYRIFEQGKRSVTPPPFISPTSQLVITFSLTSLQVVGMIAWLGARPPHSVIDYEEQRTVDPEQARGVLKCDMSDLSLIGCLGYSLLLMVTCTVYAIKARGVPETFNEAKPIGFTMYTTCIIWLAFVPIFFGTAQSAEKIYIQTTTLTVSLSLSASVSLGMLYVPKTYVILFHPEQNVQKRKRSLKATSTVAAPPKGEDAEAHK
Test: Agonist activity at human mGlu6 receptor expressed in HEK293T cell membranes by GTPgammaS binding assay
pEC50: −log10 of the molar value.
property: pEC50

Task item: Provide one value: measured pEC50 of `N[C@]1(C(=O)O)[C@H]2[C@@H](C[C@@H]1F)[C@@H]2C(=O)O`
Reply: < 4.52

---

Test: Stability of compound in HCL at pH 1.2 assessed as remaining parent compound at 50 ug/ml after 1 hr by HPLC analysis
Format: physicochemical
Conditions: HCl at pH 1.2, pH 1.2, at 50 µg/mL, read-out: Stabilty
property: remaining at 1 h, 50 ug/ml (%)

molecule	obs-value
Cc1oc(=O)oc1COC(=O)[C@H]1[C@@H]2C[C@H](F)[C@@](N)(C(=O)O)[C@@H]21	99
CC(OC(=O)O[C@@H]1C[C@H](C)CC[C@H]1C(C)C)OC(=O)[C@H]1[C@@H]2C[C@H](F)[C@@](N)(C(=O)O)[C@@H]21 (stereo not given in full)	100
CC(OC(=O)C(C)C)OC(=O)[C@H]1[C@@H]2C[C@H](F)[C@@](N)(C(=O)O)[C@@H]21 (stereo not given in full)	100
CC(C)(C)C(=O)OCOC(=O)[C@H]1[C@@H]2C[C@H](F)[C@@](N)(C(=O)O)[C@@H]21	100
CC(C)OC(=O)OC(C)OC(=O)[C@H]1[C@@H]2C[C@H](F)[C@@](N)(C(=O)O)[C@@H]21 (stereo not given in full)	102
CC(OC(=O)OC1CCCCC1)OC(=O)[C@H]1[C@@H]2C[C@H](F)[C@@](N)(C(=O)O)[C@@H]21 (stereo not given in full)	100
CC(OC(=O)OC12CC3CC(CC(C3)C1)C2)OC(=O)[C@H]1[C@@H]2C[C@H](F)[C@@](N)(C(=O)O)[C@@H]21 (stereo not given in full)	95
CC(OC(=O)OC1CCCCC1)OC(=O)[C@@]1(N)[C@H]2[C@@H](C[C@@H]1F)[C@@H]2C(=O)O (stereo not given in full)	75
N[C@]1(C(=O)O)[C@H]2[C@@H](C[C@@H]1F)[C@@H]2C(=O)OC1OC(=O)c2ccccc21 (stereo not given in full)	99
Cc1oc(=O)oc1COC(=O)[C@@]1(N)[C@H]2[C@@H](C[C@@H]1F)[C@@H]2C(=O)O	95

---

Target: Metabotropic glutamate receptor 2 (Homo sapiens, UniProt Q14416)
Sequence (Q14416 whole entry): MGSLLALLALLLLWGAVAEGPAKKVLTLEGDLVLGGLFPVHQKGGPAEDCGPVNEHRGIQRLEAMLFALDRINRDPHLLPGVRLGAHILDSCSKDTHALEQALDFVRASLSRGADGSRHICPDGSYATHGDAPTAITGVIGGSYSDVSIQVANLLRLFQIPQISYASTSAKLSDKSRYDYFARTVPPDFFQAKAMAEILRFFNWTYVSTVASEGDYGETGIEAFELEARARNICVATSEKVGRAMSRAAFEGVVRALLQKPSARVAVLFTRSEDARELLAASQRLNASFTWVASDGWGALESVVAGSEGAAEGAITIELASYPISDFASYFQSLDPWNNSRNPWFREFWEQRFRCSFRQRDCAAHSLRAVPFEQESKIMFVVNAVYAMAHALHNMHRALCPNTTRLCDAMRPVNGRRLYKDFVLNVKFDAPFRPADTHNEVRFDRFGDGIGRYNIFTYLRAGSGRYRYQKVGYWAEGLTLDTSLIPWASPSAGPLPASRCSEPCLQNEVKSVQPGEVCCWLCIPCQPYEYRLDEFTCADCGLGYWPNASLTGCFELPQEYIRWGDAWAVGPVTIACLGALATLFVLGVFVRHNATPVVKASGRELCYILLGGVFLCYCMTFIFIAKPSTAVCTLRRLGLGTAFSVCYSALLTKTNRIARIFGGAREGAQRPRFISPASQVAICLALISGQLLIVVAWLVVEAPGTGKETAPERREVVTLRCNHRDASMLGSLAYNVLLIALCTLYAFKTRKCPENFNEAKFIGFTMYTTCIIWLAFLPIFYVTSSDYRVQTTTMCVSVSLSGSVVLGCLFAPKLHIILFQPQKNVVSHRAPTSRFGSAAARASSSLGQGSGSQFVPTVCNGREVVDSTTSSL
Assay: Agonist activity at human mGlu2 receptor expressed in CHO cell membranes by GTPgammaS binding assay
property: EC50

Task item: Return the recorded EC50 value; entry: `CC(C)[C@@H]1CC[C@@H](C)C[C@H]1OC(=O)O[C@@H](C)OC(=O)[C@H]1[C@@H]2C[C@H](F)[C@@](N)(C(=O)O)[C@@H]21`
Reply: > 30 µM

---

Molecular target: Metabotropic glutamate receptor 8 (Homo sapiens, UniProt O00222)
Assay: Antagonist activity at human mGlu8 receptor expressed in CHO cell membranes in presence of glutamate by GTPgammaS binding assay
property: IC50

Task item: Let me know recorded IC50 for `N[C@]1(C(=O)O)[C@H]2[C@@H](C[C@@H]1F)[C@@H]2C(=O)O` , thanks.
Reply: > 30 µM

---

Target: Metabotropic glutamate receptor 3 (Rattus norvegicus, UniProt P31422)
Sequence (P31422 whole entry): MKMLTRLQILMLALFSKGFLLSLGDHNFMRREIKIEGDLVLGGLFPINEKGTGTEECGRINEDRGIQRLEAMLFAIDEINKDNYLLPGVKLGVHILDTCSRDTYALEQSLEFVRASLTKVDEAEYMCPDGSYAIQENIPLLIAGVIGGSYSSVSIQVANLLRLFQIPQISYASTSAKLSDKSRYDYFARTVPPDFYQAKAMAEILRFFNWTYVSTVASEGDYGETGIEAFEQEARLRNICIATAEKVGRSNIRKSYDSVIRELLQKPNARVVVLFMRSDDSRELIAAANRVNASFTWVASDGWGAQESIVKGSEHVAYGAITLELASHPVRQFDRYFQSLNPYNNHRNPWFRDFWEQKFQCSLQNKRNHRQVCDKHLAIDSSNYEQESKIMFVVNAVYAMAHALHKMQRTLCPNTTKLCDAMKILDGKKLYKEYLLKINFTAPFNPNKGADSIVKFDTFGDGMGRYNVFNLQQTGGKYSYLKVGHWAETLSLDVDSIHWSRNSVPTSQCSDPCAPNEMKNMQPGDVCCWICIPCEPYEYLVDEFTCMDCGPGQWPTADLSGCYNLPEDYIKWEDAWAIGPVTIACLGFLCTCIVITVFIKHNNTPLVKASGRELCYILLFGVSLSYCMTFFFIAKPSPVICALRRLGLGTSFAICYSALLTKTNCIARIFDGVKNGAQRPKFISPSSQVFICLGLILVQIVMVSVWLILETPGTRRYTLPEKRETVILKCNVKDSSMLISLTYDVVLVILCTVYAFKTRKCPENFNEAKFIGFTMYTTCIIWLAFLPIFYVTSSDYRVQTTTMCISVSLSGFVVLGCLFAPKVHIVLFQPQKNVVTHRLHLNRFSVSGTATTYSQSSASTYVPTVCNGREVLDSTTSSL
Assay: Agonist activity at rat mGlu3 receptor expressed in CHO cell membranes by GTPgammaS binding assay
property: pEC50
API: returns pEC50 as number; meaning -log10 of concentration in mol/L.

Task item: Report pEC50 for `N[C@]1(C(=O)O)[C@H]2[C@@H](C[C@@H]1F)[C@@H]2C(=O)O`
Reply: 7.01

---

Biological target: Metabotropic glutamate receptor 1 (Homo sapiens, UniProt Q13255)
Sequence (Q13255 whole entry): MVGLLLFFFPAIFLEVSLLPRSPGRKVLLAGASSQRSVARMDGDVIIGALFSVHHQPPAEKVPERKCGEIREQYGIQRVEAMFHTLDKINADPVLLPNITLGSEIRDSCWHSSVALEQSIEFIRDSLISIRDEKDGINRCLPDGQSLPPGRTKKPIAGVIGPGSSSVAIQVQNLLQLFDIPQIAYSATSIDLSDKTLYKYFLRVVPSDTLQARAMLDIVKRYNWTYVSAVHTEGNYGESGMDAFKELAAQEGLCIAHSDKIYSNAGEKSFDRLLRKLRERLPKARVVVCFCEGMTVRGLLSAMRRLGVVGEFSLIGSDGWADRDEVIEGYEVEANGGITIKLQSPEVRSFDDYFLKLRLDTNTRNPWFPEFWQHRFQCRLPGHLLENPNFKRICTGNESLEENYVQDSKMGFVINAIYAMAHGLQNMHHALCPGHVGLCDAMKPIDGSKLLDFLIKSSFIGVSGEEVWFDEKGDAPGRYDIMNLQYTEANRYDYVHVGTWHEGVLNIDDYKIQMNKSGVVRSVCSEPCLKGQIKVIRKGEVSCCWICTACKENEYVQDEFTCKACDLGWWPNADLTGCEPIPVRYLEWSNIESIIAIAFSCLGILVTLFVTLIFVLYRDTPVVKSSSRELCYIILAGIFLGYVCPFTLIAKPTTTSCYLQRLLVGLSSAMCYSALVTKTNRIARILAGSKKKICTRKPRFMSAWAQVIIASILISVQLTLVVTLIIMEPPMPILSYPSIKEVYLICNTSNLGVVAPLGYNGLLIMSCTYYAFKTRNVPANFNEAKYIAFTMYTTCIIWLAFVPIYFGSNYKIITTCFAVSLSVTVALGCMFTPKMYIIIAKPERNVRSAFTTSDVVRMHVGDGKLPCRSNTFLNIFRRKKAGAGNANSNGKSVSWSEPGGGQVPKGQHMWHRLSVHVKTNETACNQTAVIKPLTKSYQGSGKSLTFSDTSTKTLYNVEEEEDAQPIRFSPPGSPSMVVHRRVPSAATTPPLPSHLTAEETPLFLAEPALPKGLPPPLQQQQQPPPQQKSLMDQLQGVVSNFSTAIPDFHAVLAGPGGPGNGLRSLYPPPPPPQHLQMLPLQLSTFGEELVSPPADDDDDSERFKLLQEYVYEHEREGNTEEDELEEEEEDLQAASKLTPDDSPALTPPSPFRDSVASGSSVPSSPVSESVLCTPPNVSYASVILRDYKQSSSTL
Experiment: Agonist activity at human mGlu1 receptor expressed in CHO cell membranes by intracellular Ca2+ assay
property: EC50

Task item: Return EC50 (reported value) for this compound: `N[C@]1(C(=O)O)[C@H]2[C@@H](C[C@@H]1F)[C@@H]2C(=O)O`
Reply: > 30 µM

---

Target: Metabotropic glutamate receptor 4 (Homo sapiens, UniProt Q14833)
Sequence (Q14833 whole entry): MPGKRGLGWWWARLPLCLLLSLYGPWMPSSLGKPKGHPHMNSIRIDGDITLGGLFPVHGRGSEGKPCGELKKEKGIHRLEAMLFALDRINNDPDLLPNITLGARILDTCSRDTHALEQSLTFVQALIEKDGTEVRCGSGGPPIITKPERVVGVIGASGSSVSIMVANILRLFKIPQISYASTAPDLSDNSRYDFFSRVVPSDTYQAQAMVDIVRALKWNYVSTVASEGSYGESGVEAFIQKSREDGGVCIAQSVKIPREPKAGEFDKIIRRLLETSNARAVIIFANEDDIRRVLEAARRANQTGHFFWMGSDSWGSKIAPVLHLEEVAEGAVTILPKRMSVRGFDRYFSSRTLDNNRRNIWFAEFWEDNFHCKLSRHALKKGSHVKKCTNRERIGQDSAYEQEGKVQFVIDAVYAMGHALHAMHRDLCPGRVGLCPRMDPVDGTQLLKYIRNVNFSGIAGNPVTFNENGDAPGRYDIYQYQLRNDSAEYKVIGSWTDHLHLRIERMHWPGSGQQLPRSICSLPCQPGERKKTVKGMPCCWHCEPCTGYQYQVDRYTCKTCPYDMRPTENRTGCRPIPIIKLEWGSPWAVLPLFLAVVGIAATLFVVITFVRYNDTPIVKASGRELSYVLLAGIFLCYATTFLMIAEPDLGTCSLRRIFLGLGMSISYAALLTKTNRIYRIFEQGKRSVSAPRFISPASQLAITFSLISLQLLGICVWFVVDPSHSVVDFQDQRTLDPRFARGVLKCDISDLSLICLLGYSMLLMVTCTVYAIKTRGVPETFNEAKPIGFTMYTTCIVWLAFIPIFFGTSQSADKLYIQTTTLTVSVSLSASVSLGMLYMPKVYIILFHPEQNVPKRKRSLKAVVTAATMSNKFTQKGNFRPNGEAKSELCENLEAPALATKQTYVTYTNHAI
Assay: Antagonist activity at human mGlu4 receptor expressed in CHO cell membranes in presence of glutamate by GTPgammaS binding assay
pIC50: −log10 of the molar value.
property: pIC50

Task item: Tell me its pIC50 given `N[C@]1(C(=O)O)[C@H]2[C@@H](C[C@@H]1F)[C@@H]2C(=O)O` as the entry.
Reply: < 4.52

---

Assay: Stability of compound in PBS at pH 6.5 assessed as remaining parent compound at 50 ug/ml after 1 hr by HPLC analysis
Format: physicochemical
Details: PBS at pH 6.5, pH 6.5, at 50 µg/mL, read-out: Stabilty
property: remaining at 1 h, 50 ug/ml (%)

Example entries and their recorded answers appear below.
compound	remaining at 1 h, 50 ug/ml / %
CC(C)OC(=O)OC(C)OC(=O)[C@H]1[C@@H]2C[C@H](F)[C@@](N)(C(=O)O)[C@@H]21 (stereo not given in full)	101
CC(OC(=O)O[C@@H]1C[C@H](C)CC[C@H]1C(C)C)OC(=O)[C@H]1[C@@H]2C[C@H](F)[C@@](N)(C(=O)O)[C@@H]21 (stereo not given in full)	100
CC(C)(C)C(=O)OCOC(=O)[C@H]1[C@@H]2C[C@H](F)[C@@](N)(C(=O)O)[C@@H]21	99

a = Cc1oc(=O)oc1COC(=O)[C@@]1(N)[C@H]2[C@@H](C[C@@H]1F)[C@@H]2C(=O)O
b = N[C@]1(C(=O)O)[C@H]2[C@@H](C[C@@H]1F)[C@@H]2C(=O)OC1OC(=O)c2ccccc21 (stereo not given in full)
Task item: Select the item whose remaining at 1 h, 50 ug/ml value is smaller, choosing between a and b . Respond with the label that goes with your answer.
Reply: a

a = CC(OC(=O)OC1CCCCC1)OC(=O)[C@@]1(N)[C@H]2[C@@H](C[C@@H]1F)[C@@H]2C(=O)O (stereo not given in full)
b = CC(OC(=O)C(C)C)OC(=O)[C@H]1[C@@H]2C[C@H](F)[C@@](N)(C(=O)O)[C@@H]21 (stereo not given in full)
Task item: Among a and b , which shows a numerically higher remaining at 1 h, 50 ug/ml result? Pick one and reply with its label.
Reply: b

---

Molecular target: Metabotropic glutamate receptor 1 (Homo sapiens)
Assay: Antagonist activity at human mGlu1 receptor expressed in CHO cell membranes in presence of glutamate by intracellular Ca2+ assay
property: IC50

Task item: Write down IC50 measured for item `N[C@]1(C(=O)O)[C@H]2[C@@H](C[C@@H]1F)[C@@H]2C(=O)O`
Reply: > 30 µM

---

Experiment: Lipophilicity, logD of compound in n-octanol and phosphate buffered saline at 2 mg after 1.5 hrs by HPLC based shake flask method
Type: physicochemical
Settings: n-octanol/phosphate buffered saline
property: logD at 1.5 h

molecule	logD at 1.5 h
N[C@]1(C(=O)O)[C@H]2[C@@H](C[C@@H]1F)[C@@H]2C(=O)OC1OC(=O)c2ccccc21 (stereo partly specified)	-0.71
CC(C)(C)C(=O)OCOC(=O)[C@H]1[C@@H]2C[C@H](F)[C@@](N)(C(=O)O)[C@@H]21	-0.54
CC(OC(=O)O[C@@H]1C[C@H](C)CC[C@H]1C(C)C)OC(=O)[C@H]1[C@@H]2C[C@H](F)[C@@](N)(C(=O)O)[C@@H]21 (stereo partly specified)	2.77
Cc1oc(=O)oc1COC(=O)[C@H]1[C@@H]2C[C@H](F)[C@@](N)(C(=O)O)[C@@H]21	-1.69
CC(OC(=O)OC12CC3CC(CC(C3)C1)C2)OC(=O)[C@H]1[C@@H]2C[C@H](F)[C@@](N)(C(=O)O)[C@@H]21 (stereo partly specified)	1.67

A = Cc1oc(=O)oc1COC(=O)[C@@]1(N)[C@H]2[C@@H](C[C@@H]1F)[C@@H]2C(=O)O
B = CC(OC(=O)OC1CCCCC1)OC(=O)[C@H]1[C@@H]2C[C@H](F)[C@@](N)(C(=O)O)[C@@H]21 (stereo partly specified)
Task item: Identify the entry with the larger logD at 1.5 h. Options: A and B Use the label to indicate which entry you chose.
Reply: B
